Value source: paper PMC8462848

- EXPERIMENTAL TARGET: CDK2/CyclinA2 (Homo sapiens)
- Construct: purchased #79599
- ASSAY EXPLANATION: CDK2 Assay Kit, Kinase-Glo MAX luminescence
- Type: biochemical
- RECORDED CONDITIONS: 0.01 µM; one experimental data
Please respond with reported inhibition at 0.01 µM for every item in the list.
Field: value (include unit after the number)

**Query** Under CDK2/CyclinA2 (Homo sapiens): report inhibition at 0.01 µM of CCOC(=O)CSc1nc2ccc(F)cc2c(=O)n1Cc1ccccc1 .
**Result** 8.38%

**Query** Give reported inhibition at 0.01 µM for CCOC(=O)CSc1nc2c(C)cc(Cl)cc2c(=O)n1Cc1ccccc1 (CDK2/CyclinA2 (Homo sapiens))
**Result** 4.28%

**Query** Find inhibition at 0.01 µM for NNC(=O)CSc1nc2c(F)cc(F)cc2c(=O)n1Cc1ccccc1 on CDK2/CyclinA2 (Homo sapiens) and write it down.
**Result** 3.74%

**Query** Name the recorded inhibition at 0.01 µM of CCOC(=O)CSc1nc2c(F)cc(F)cc2c(=O)n1Cc1ccccc1 , assay system CDK2/CyclinA2 (Homo sapiens).
**Result** 2.43%

**Query** Please indicate recorded inhibition at 0.01 µM of Cc1cc(Cl)cc2c(=O)n(Cc3ccccc3)c(SCC(=O)NN)nc12 measured with CDK2/CyclinA2 (Homo sapiens).
**Result** 8.13%

----------
- Test system: A2780 (human ovary adenocarcinoma) cells
- ASSAY EXPLANATION: MTT cytotoxicity assay, A2780
- Format: cell-based
- RECORDED CONDITIONS: mean ± SD of triplicate
QUANTITY KIND: IC50 (µM)
Output spec: scalar in µM, unitless text.

**Query** State recorded IC50 with A2780 (human ovary adenocarcinoma) cells, entry CS(=O)(=O)CCNCc1ccc(-c2ccc3ncnc(Nc4ccc(OCc5cccc(F)c5)c(Cl)c4)c3c2)o1 [lapatinib, reference compound] , no comment.
**Result** 12.1

----------
- EXPERIMENTAL TARGET: HER2 (Homo sapiens)
- Construct: purchased #40721
- Sequence (P04626 23-1255): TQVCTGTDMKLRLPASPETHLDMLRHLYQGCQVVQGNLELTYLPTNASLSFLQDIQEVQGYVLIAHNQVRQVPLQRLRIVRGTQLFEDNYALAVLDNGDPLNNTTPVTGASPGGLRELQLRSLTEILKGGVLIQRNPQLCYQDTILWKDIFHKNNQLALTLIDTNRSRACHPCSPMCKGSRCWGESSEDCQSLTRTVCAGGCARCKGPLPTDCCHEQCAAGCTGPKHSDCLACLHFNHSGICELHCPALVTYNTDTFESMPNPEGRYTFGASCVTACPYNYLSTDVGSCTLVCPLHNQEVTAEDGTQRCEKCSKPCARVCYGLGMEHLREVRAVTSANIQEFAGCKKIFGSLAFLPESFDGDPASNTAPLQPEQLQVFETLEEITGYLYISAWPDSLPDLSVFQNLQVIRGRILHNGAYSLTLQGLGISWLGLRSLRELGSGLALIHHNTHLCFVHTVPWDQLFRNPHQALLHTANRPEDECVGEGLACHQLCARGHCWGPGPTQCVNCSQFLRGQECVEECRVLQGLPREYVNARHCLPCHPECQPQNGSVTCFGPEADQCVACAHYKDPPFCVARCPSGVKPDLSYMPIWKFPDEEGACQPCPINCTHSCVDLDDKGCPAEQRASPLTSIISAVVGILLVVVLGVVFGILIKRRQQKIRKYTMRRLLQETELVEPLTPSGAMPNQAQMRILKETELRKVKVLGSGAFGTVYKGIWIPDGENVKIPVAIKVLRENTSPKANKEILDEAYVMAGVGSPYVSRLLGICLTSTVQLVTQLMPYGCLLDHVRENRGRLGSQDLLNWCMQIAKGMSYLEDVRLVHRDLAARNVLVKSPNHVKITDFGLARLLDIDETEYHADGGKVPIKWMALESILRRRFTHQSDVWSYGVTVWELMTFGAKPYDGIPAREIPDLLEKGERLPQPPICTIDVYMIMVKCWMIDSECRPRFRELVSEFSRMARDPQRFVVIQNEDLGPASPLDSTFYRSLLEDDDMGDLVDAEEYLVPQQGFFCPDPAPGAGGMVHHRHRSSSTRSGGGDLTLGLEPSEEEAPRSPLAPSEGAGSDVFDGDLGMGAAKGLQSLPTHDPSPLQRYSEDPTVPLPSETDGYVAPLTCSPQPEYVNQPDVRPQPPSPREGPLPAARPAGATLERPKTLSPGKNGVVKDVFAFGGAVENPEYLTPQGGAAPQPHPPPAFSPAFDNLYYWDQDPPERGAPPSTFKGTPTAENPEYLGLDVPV
- ASSAY EXPLANATION: HER2 kinase assay kit, Kinase-Glo MAX luminescence
- Assay type: biochemical
- RECORDED CONDITIONS: 0.01 µM; one experimental data
Hi, to clarify the labels: yes (1) covers inhibition at 0.01 µM from 10% upward, no (0) covers anything below 10%.

**Query** Confirm if inhibition at 0.01 µM reported for the molecule CCOC(=O)CSc1nc2c(F)cc(F)cc2c(=O)n1Cc1ccccc1 is 10% or above.
**Result** no (0)

**Query** Reported inhibition at 0.01 µM reaches at least 10% for NNC(=O)CSc1nc2ccc(Cl)cc2c(=O)n1Cc1ccccc1 ?
**Result** yes (1)

**Query** State whether the measured inhibition at 0.01 µM reaches 10%, counting equality as reaching it, for CCOC(=O)CSc1nc2cc(OC)c(OC)cc2c(=O)n1Cc1ccccc1
**Result** yes (1)

**Query** # bool: inhibition at 0.01 µM of Cc1cc(Cl)cc2c(=O)n(Cc3ccccc3)c(SCC(=O)NN)nc12 >= 10%
**Result** no (0)

**Query** Please indicate if the recorded inhibition at 0.01 µM for NNC(=O)CSc1nc2c(F)cc(F)cc2c(=O)n1Cc1ccccc1 meets or exceeds 10%.
**Result** no (0)

**Query** Identify whether the reported inhibition at 0.01 µM of the following molecule is 10% or greater: CCOC(=O)CSc1nc2ccc(Cl)cc2c(=O)n1Cc1ccccc1
**Result** no (0)

**Query** Record CCOC(=O)CSc1nc2c(C)cc(Cl)cc2c(=O)n1Cc1ccccc1 ; criterion: inhibition at 0.01 µM no lower than 10%. Met?
**Result** yes (1)

**Query** Assess whether reported inhibition at 0.01 µM for NNC(=O)CSc1nc2ccc(F)cc2c(=O)n1Cc1ccccc1 sits at 10% or higher.
**Result** yes (1)

**Query** Answer whether inhibition at 0.01 µM of CS(=O)(=O)CCNCc1ccc(-c2ccc3ncnc(Nc4ccc(OCc5cccc(F)c5)c(Cl)c4)c3c2)o1 [lapatinib, reference compound] is greater than or equal to 10%.
**Result** yes (1)

**Query** Is inhibition at 0.01 µM for CCOC(=O)CSc1nc2ccc(F)cc2c(=O)n1Cc1ccccc1 at or above 10%?
**Result** yes (1)

**Query** State whether the measured inhibition at 0.01 µM reaches 10%, counting equality as reaching it, for COc1cc2nc(SCC(=O)NN)n(Cc3ccccc3)c(=O)c2cc1OC
**Result** yes (1)

----------
- EXPERIMENTAL TARGET: VEGFR2 (Homo sapiens, UniProt P35968)
- Construct: purchased #40325
- Sequence (P35968 20-1356): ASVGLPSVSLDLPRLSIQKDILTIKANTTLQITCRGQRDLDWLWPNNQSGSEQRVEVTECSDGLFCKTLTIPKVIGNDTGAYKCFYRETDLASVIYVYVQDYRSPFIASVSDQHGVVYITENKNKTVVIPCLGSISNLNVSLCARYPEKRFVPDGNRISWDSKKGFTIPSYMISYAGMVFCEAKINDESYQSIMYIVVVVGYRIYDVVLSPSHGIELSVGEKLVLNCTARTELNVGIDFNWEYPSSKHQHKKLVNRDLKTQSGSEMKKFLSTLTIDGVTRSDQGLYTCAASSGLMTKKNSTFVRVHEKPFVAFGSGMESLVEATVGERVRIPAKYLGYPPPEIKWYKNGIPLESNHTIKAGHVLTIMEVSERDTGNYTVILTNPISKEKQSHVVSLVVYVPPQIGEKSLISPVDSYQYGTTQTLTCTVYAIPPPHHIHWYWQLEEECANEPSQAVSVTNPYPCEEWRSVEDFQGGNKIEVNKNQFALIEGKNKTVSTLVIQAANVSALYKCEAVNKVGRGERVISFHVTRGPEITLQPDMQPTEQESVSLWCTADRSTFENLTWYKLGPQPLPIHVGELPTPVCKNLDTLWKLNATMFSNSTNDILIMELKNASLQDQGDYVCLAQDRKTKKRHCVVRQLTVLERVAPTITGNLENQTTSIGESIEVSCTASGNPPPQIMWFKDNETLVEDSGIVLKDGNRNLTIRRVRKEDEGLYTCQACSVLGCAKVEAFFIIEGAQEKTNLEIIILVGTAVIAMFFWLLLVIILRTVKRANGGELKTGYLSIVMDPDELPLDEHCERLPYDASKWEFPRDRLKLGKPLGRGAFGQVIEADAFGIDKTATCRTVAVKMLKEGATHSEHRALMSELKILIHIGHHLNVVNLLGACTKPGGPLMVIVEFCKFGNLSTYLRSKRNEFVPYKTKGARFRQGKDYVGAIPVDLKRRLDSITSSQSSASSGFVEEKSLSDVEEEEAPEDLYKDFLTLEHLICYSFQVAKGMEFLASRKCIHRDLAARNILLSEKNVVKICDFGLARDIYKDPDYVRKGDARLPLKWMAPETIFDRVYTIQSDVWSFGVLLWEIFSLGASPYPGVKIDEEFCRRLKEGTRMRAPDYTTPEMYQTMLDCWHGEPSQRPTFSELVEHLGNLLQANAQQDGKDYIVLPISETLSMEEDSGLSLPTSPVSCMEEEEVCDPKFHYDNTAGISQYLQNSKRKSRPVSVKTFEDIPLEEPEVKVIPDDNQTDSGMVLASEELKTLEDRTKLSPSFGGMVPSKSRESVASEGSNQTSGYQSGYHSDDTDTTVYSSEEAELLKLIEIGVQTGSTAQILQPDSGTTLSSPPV
- ASSAY EXPLANATION: VEGFR2 kinase assay kit, Kinase-Glo MAX luminescence
- Type: biochemical
- RECORDED CONDITIONS: 10 µM; one experimental data; read-out: % Inhibition VEGFR-2
Is inhibition at 10 µM at least 80%? Then y. If not, n.

**Query** Kindly determine if inhibition at 10 µM recorded for CCOC(=O)CSc1nc2ccc(F)cc2c(=O)n1Cc1ccccc1 [2g] is above or exactly 80%.
**Result** n

**Query** In plain terms: is recorded inhibition at 10 µM at least 80% for CCOC(=O)CSc1nc2ccc(Cl)cc2c(=O)n1Cc1ccccc1 [2f] ?
**Result** n

**Query** # bool: inhibition at 10 µM of CCOC(=O)CSc1nc2c(F)cc(F)cc2c(=O)n1Cc1ccccc1 [2h] >= 80%
**Result** y

**Query** Dear colleague, could you confirm whether COc1cc2nc(SCC(=O)NN)n(Cc3ccccc3)c(=O)c2cc1OC [3i] has inhibition at 10 µM at or above 80%?
**Result** y

----------
- EXPERIMENTAL TARGET: CDK2/CyclinA2 (Homo sapiens)
- ASSAY EXPLANATION: CDK2 Assay Kit, Kinase-Glo MAX luminescence
- RECORDED CONDITIONS: mean ± SD of triplicate
Answer each item with its documented IC50.
Kindly provide the numeric value in µM only, without the unit symbol.

**Query** Read the entry Cc1cc(Cl)cc2c(=O)n(Cc3ccccc3)c(SCC(=O)NN)nc12 and write its reported IC50.
**Result** 0.473

**Query** Identify measured IC50 associated with NNC(=O)CSc1nc2c(F)cc(F)cc2c(=O)n1Cc1ccccc1
**Result** 0.257

**Query** Using the record for CCOC(=O)CSc1nc2c(C)cc(Cl)cc2c(=O)n1Cc1ccccc1 , state its measured IC50.
**Result** 0.862

**Query** Given NNC(=O)CSc1nc2ccc(F)cc2c(=O)n1Cc1ccccc1 , respond with its IC50.
**Result** 0.207

**Query** Using known records, supply IC50 for CCOC(=O)CSc1nc2cc(OC)c(OC)cc2c(=O)n1Cc1ccccc1
**Result** 0.173

**Query** State its IC50: CCOC(=O)CSc1nc2ccc(Cl)cc2c(=O)n1Cc1ccccc1
**Result** 0.424

**Query** Given CCOC(=O)CSc1nc2c(F)cc(F)cc2c(=O)n1Cc1ccccc1 , respond with its IC50.
**Result** 0.318

**Query** Fill in IC50 for record NNC(=O)CSc1nc2ccc(Cl)cc2c(=O)n1Cc1ccccc1
**Result** 0.42

**Query** Let me know recorded IC50 for COc1cc2nc(SCC(=O)NN)n(Cc3ccccc3)c(=O)c2cc1OC , thanks.
**Result** 0.177

**Query** Determine its reported IC50: CCOC(=O)CSc1nc2ccc(F)cc2c(=O)n1Cc1ccccc1
**Result** 0.444

----------
- EXPERIMENTAL TARGET: EGFR (Homo sapiens, UniProt P00533)
- Construct: purchased #40321
- Sequence (P00533 25-1210): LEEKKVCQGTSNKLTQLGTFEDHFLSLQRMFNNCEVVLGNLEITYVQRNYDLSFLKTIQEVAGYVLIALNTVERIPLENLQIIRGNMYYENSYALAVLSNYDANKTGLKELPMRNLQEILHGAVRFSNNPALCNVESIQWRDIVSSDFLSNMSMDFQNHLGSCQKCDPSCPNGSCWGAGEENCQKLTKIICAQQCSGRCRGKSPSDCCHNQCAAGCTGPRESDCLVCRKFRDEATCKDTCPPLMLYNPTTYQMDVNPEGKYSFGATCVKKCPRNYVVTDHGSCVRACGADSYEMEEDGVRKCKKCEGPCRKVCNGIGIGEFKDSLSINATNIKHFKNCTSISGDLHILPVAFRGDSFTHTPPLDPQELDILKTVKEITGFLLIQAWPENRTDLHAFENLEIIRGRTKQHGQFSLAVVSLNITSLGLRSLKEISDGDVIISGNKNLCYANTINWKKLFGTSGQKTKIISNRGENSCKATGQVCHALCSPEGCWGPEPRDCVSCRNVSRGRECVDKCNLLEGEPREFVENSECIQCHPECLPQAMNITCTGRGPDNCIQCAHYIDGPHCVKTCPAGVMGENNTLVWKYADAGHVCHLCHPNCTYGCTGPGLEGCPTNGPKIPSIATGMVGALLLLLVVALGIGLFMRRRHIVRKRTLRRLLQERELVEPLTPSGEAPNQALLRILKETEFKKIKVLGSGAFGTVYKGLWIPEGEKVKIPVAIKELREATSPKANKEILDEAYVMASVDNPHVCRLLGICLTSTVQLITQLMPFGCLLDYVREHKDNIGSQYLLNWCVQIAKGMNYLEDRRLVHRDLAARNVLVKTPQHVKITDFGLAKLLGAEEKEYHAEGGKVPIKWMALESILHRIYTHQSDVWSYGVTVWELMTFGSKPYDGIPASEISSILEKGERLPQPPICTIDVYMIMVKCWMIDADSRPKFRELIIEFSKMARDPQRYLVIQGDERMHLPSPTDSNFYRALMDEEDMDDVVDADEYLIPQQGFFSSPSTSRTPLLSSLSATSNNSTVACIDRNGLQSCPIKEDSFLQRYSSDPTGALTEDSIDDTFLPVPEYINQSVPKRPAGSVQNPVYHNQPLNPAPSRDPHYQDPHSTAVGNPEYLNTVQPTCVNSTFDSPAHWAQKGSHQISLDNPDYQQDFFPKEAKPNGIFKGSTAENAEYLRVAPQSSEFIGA
- ASSAY EXPLANATION: EGFR kinase assay kit, Kinase-Glo MAX luminescence
- Type: biochemical
- RECORDED CONDITIONS: 0.1 µM; one experimental data
Would you kindly list inhibition at 0.1 µM for each of these molecules?
// units = %; emit number, no label

**Query** Read off the recorded inhibition at 0.1 µM for NNC(=O)CSc1nc2ccc(Cl)cc2c(=O)n1Cc1ccccc1 [3f]
**Result** 31.3

**Query** Give inhibition at 0.1 µM for the following molecule: NNC(=O)CSc1nc2c(F)cc(F)cc2c(=O)n1Cc1ccccc1 [3h]
**Result** 38

**Query** Give the reported value of inhibition at 0.1 µM for this record: CCOC(=O)CSc1nc2c(C)cc(Cl)cc2c(=O)n1Cc1ccccc1 [2j]
**Result** 49.9

**Query** Note down inhibition at 0.1 µM recorded for CCOC(=O)CSc1nc2c(F)cc(F)cc2c(=O)n1Cc1ccccc1 [2h]
**Result** 27.5

**Query** Respond only with inhibition at 0.1 µM recorded for CCOC(=O)CSc1nc2cc(OC)c(OC)cc2c(=O)n1Cc1ccccc1 [2i]
**Result** 43.7

**Query** For the molecule CCOC(=O)CSc1nc2ccc(Cl)cc2c(=O)n1Cc1ccccc1 [2f] , give its reported inhibition at 0.1 µM.
**Result** 19.1

**Query** Read the entry COc1cc2nc(SCC(=O)NN)n(Cc3ccccc3)c(=O)c2cc1OC [3i] and write its reported inhibition at 0.1 µM.
**Result** 41.2
